# Tested on: SK-OV-3 ovarian
# RUN_DESCRIPTION: NCI-60 one-dose screen, 48 h
# STATED_CONDITIONS: 10 µM unless noted
This is part of a sample that, as a whole, favours compounds with a hit. Of some 83,000 tested, about 20% had one in any assay. Activity calls are given as the source filed them. Rule for the calls: active = growth percent below 10; inactive = the rest.
Valid outcomes are listed here; reply with one: label 1 (active), label 0 (inactive)

{"COMPOUND": "Cn1cc(-c2csc(-c3cccc(F)c3)n2)c2cccnc21", "CLASS": "label 1"}
{"COMPOUND": "CC1OC(O[C@H]2/C=C/C=C/C=C/C=C/C=C/C=C/C=C/[C@H](C)[C@@H](O)[C@@H](C)[C@H](C)OC(=O)CC(O)CC(O)CCC(O)C(O)CC(O)C[C@]3(O)C[C@H](O)C(C(=O)O)C(C2)O3)C(O)[C@H](N)C1O (some centres undefined)", "CLASS": "label 0"}
{"COMPOUND": "COc1ccc(C2=Nc3c(N)ncnc3NC(c3ccc4c(c3)OCO4)C2)cc1 (centres undefined)", "CLASS": "label 0"}
{"COMPOUND": "COc1ccc(C2C(c3nn[nH]n3)=C(N)Oc3c2ccc2ccccc32)cc1 (centres undefined)", "CLASS": "label 0"}
{"COMPOUND": "CC(CCc1ccc(Cl)c(Cl)c1)NCc1ccc(C(C)(C)C)cc1 (centres undefined)", "CLASS": "label 0"}

Now consider the entry below.
Enquiry: GET /call?item= COc1ccc(Cl)cc1NC(=O)C(Br)C(Br)C(=O)O (centres undefined) returns the recorded outcome of this test.
Return: label 0

* * *

# Test system: MDA-MB-435 melanoma
# RUN_DESCRIPTION: NCI-60 one-dose screen, 48 h
# STATED_CONDITIONS: 10 µM unless noted
The panel holds about 83,000 compounds, 20% with a hit somewhere; the sample as a whole holds those more often. Active and inactive are the calls of the source. Rule for the calls: active = growth percent below 10; inactive = the rest.
Valid outcomes are listed here; reply with one: active, inactive

See these solved cases before continuing.
{"COMPOUND": "NC(=N\\N=C/c1ccccc1[N+](=O)[O-])/C(N)=N\\N=C/c1ccccc1[N+](=O)[O-]", "CLASS": "inactive"}
{"COMPOUND": "c1c[nH]c(CNC2CCCCC2)c1", "CLASS": "inactive"}

Enquiry: GET /call?item= `CCOC(=O)c1csc(NC(=O)COc2cccc(/C=C3\Oc4cc(OC)ccc4C3=O)c2)n1` returns the recorded outcome of this test.
Return: inactive

Enquiry: GET /call?item= `COc1cc(N2C(=O)c3nccnc3C2=O)cc(OC)c1OC` returns the recorded outcome of this test.
Return: inactive

Enquiry: GET /call?item= `C=CCNc1nc(NN2C(=O)c3cccc4cccc(c34)C2=O)nc(-n2cnc3ccccc32)n1` returns the recorded outcome of this test.
Return: inactive

Enquiry: GET /call?item= `N#Cc1c(-c2ccccn2)[nH]c(=S)[nH]c1=O` returns the recorded outcome of this test.
Return: inactive

Enquiry: GET /call?item= `Cc1nn(-c2ccccc2)c(Oc2ccc(Cl)cc2)c1/C=N\N=c1/sc2ccccc2n1C` returns the recorded outcome of this test.
Return: inactive

* * *

# System: MDA-MB-435 melanoma
# RUN_DESCRIPTION: NCI-60 one-dose screen, 48 h
# STATED_CONDITIONS: 10 µM unless noted
Compounds without any hit were thinned out: in the full panel of roughly 83,000, 20% have a hit. Calls of active or inactive are those of the source. How the source made its calls: active means growth percent below 10; inactive means the rest.
Valid outcomes are listed here; reply with one: 1 (yes) = active, 0 (no) = inactive

{"COMPOUND": "CCCCN(CCCC)CC(C)(C)C(O)c1ccc(OC)c2ccccc12 (stereo not given)", "CLASS": "0 (no)"}
{"COMPOUND": "C=C1C(=O)O[C@H]2[C@H]1CC/C(COC(=O)C(=O)c1c[nH]c3ccc(OC)cc13)=C\\CC[C@@]1(C)O[C@@H]21", "CLASS": "1 (yes)"}

Enquiry: GET /call?item= `Cc1ccc(Cl)cc1NC(=O)c1cc2ccccc2cc1O` returns the recorded outcome of this test.
Return: 1 (yes)

Enquiry: GET /call?item= `Cc1cccc(Cc2cnc(NC(=O)c3ccc4nnsc4c3)s2)c1` returns the recorded outcome of this test.
Return: 0 (no)

Enquiry: GET /call?item= CC1(C)CC(=O)C2=C(C1)N(c1ccc(OC(F)(F)F)cc1)C(N)=C(C#N)C2c1ccc(Cl)cc1 (stereo not given) returns the recorded outcome of this test.
Return: 0 (no)

* * *

# Test system: SNB-19 CNS
# RUN_DESCRIPTION: NCI-60 one-dose screen, 48 h (100 = growth as untreated, 0 = no growth, -100 = all killed)
# STATED_CONDITIONS: 10 µM unless noted
This is part of a sample that, as a whole, favours compounds with a hit. Of some 83,000 tested, about 20% had one in any assay.
# label = yes if growth < 70% else no

See these solved cases before continuing.
{"MOLECULE": "COC(=O)c1ccc(C2Nc3ccc(S(=O)(=O)Nc4ccc(C)c(C)c4)cc3C3OCCC23)cc1 (centres undefined)", "CLASS": "no"}
{"MOLECULE": "Fc1ccc(CNc2c3ccccc3nc3ccccc23)cc1F", "CLASS": "yes"}
{"MOLECULE": "C=C1C(=O)O[C@H]2[C@H]1CC/C(COC(=O)C(=O)c1c[nH]c3ccc(OC)cc13)=C\\CC[C@@]1(C)O[C@@H]21", "CLASS": "yes"}
{"MOLECULE": "COc1ccc(-c2nc3sccn3c2-c2cc(-c3cc(OC)c(OC)c(OC)c3)on2)cc1", "CLASS": "no"}
{"MOLECULE": "CCN(CC)CCCCCCNc1cc(OC)c(Cl)c2cccnc12", "CLASS": "no"}

Enquiry: Lab note: growth threshold 70%. Does this molecule come in strictly under it? `c1ccc2c(c1)nc(CN1CCOCC1)n1cc(N3CCCC3)nc21`
Return: no

Enquiry: Lab note: growth threshold 70%. Does this molecule come in strictly under it? `CC/C=C1/C(=O)C=C[C@@H]1C/C=C\CCCC(=O)O`
Return: no

Enquiry: Lab note: growth threshold 70%. Does this molecule come in strictly under it? `O=C1N=c2cc3c(cc2=C/C1=C/c1sc(=S)n(CCc2ccc(O)cc2)c1O)OCCO3`
Return: yes

Enquiry: Lab note: growth threshold 70%. Does this molecule come in strictly under it? O=C(NC(Cc1nnc2n(Cc3ccccc3)c(=O)c3c4c(sc3n12)CCCC4)c1ccc(Cl)cc1)c1ccccc1 (centres undefined)
Return: no

* * *

Would you mind telling me the reported growth of each entry?
# System: IGROV1 ovarian
# RUN_DESCRIPTION: NCI-60 one-dose screen, 48 h (100 = growth as untreated, 0 = no growth, -100 = all killed)
# STATED_CONDITIONS: 10 µM unless noted
About 83,000 compounds went through this panel and 20% of them were active in at least one assay; those are over-represented in the sample as a whole.
One number for each entry, in %.

For each entry beneath this line, provide reported growth.
1. CNC(=O)NCC1OC(n2cnc3c(NC(=O)Nc4ccccc4)ncnc32)C(O[Si](C)(C)C(C)(C)C)C1CC(=O)N(C)OC (centres undefined)
2. COC(=O)[C@]12CC[C@@H](C)[C@H](C)[C@@H]1C1=CC[C@@H]3[C@@]4(C)C(C=O)=C[C@@](C)(COS(C)(=O)=O)C4[C@H](O)C[C@@]3(C)[C@]1(C)CC2 (some centres undefined)
3. CCN(CC)CCN1C(=O)c2c(c(C)c3c(oc4cc(O)ccc43)c2C)C1=O
4. CCN(CC)c1ccc(C(=O)c2ccc(N(CC)CC)cc2)cc1

Return:
[-36.6, -13.4, 91.9, 37.3]

* * *

# Tested on: HCC-2998 colon
# RUN_DESCRIPTION: NCI-60 one-dose screen, 48 h (100 = growth as untreated, 0 = no growth, -100 = all killed)
# STATED_CONDITIONS: 10 µM unless noted
# Description: Growth inhibition of the HCC-2998 human tumor cell line is measured as a screen for anti-cancer activity. Cells are grown in 96 well plates and exposed to the test compound for 48 hours. Compounds are tested at a single concentration, which is 10^-5 M for most compounds. The reported endpoint is percent growth (GI% or GIPRCNT), where numbers from 0 - 100% represent growth inhibition, and numbers from -100% - 0 represent cell death. For example, a value of 40 represents 60% growth inhibition. […]
This is part of a sample that, as a whole, favours compounds with a hit. Of some 83,000 tested, about 20% had one in any assay.
The threshold is inclusive: growth of exactly 10% counts as t; values below receive f.

{"MOLECULE": "O=C(CC(SCc1ccccc1)c1ccccc1)c1ccccc1 (stereo not drawn)", "CLASS": "t"}
{"MOLECULE": "COc1cccc(-c2nn(-c3ccccc3)cc2-c2ccnc(NCCCNC(=O)c3cccc(C(F)(F)F)c3)c2)c1", "CLASS": "t"}

Enquiry: # bool: growth of `CN(C)c1ccc(-c2cc(-c3ccc(Nc4nc(Nc5ccc(Cl)cc5)nc(Nc5ccc(Cl)cc5)n4)cc3)no2)cc1` >= 10%
Return: f

Enquiry: # bool: growth of `COC(=O)c1c2c(c(C)[n+]([O-])c1C)C(=O)C(NCc1ccc(F)c(Cl)c1)=CC2=O` >= 10%
Return: t

Data provenance: PubChem BioAssay (NCI)
